Tested on: A2780
Assay: Growth inhibition of human A2780 cells after 72 hrs by MTS dye based cell titer-96 non-rad cell proliferation assay relative control
Type: functional
Note to self: values exactly at 40% are fulfilled. So Imax at or above 40% is fulfilled, below is not fulfilled.

{"smiles record": "CC1(C)CC(C)(C)c2cc(NC(=O)/C=C/c3ccc(C(=O)N4CCOCC4)cc3)ccc2S1", "group": "fulfilled"}
{"smiles record": "CC1(C)CC(C)(C)c2cc(NC(=O)/C=C/c3ccc(C(=O)O)cc3)ccc2S1", "group": "not fulfilled"}
{"smiles record": "CC1(C)CC(C)(C)c2cc(NC(=S)Nc3ccc([N+](=O)[O-])cc3)ccc2S1", "group": "fulfilled"}
{"smiles record": "CN(C)c1ccc(/C=C/C(=O)Nc2ccc3c(c2)C(C)(C)CC(C)(C)S3)cc1", "group": "fulfilled"}
{"smiles record": "CNC(=O)c1ccc(/C=C/C(=O)Nc2ccc3c(c2)C(C)(C)CC(C)(C)S3)cc1", "group": "fulfilled"}
{"smiles record": "CC1(C)CC(C)(C)c2cc(NC(=O)/C=C/c3ccc([N+](=O)[O-])cc3)ccc2S1", "group": "fulfilled"}
{"smiles record": "CC1(C)CC(C)(C)c2cc(NC(=O)/C=C/c3c(F)c(F)c(F)c(F)c3F)ccc2S1", "group": "not fulfilled"}
{"smiles record": "CC1(C)CC(C)(C)c2cc(NC(=O)/C=C/c3ccc(C(F)(F)F)cc3)ccc2S1", "group": "not fulfilled"}
{"smiles record": "CC1(C)CC(C)(C)c2cc(NC(=O)/C=C/c3ccc(N)cc3)ccc2S1", "group": "fulfilled"}
{"smiles record": "COc1ccc(/C=C/C(=O)Nc2ccc3c(c2)C(C)(C)CC(C)(C)S3)cc1OC", "group": "not fulfilled"}
{"smiles record": "CC1(C)CC(C)(C)c2cc(NC(=O)/C=C/c3ccc(C(=O)NC4CC4)cc3)ccc2S1", "group": "fulfilled"}

###

Experiment: Half life in mouse plasma at 37 degC
Type: ADME, cell-free

{"smiles record": "CC1(C)CC(C)(C)c2cc(NC(=S)Nc3ccc([N+](=O)[O-])cc3)ccc2S1", "half-life": "12.7 h"}
